Data provenance: ChEMBL document CHEMBL1143169

# maps each entry to its solubility
Assay: Aqueous solubility at pH 7.4
Format: physicochemical

{"molecule": "CCCCc1ccc2c(c1)nc(NC(=O)OC)n2COP(=O)([O-])O.[Na+]", "solubility": "> 50 mM"}
{"molecule": "COC(=O)Nc1nc2cc(Sc3ccccc3)ccc2n1COP(=O)([O-])O.[Na+]", "solubility": "130 mM"}
{"molecule": "COC(=O)Nc1nc2cc(C(=O)c3ccccc3)ccc2n1COP(=O)([O-])O.[Na+]", "solubility": "> 50 mM"}
{"molecule": "COC(=O)Nc1nc2cc(C(=O)c3ccc(F)cc3)ccc2n1COP(=O)([O-])O.[Na+]", "solubility": "> 50 mM"}
{"molecule": "CCCSc1ccc2c(c1)nc(NC(=O)OC)n2COP(=O)([O-])O.[Na+]", "solubility": "> 50 mM"}
{"molecule": "COC(=O)Nc1nc2cc([S+]([O-])c3ccccc3)ccc2n1COP(=O)([O-])O.[Na+] (stereo unspecified)", "solubility": "> 50 mM"}
